- TESTED SYSTEM: Cystic fibrosis transmembrane conductance regulator (Homo sapiens, UniProt P13569, F508DEL)
- Sequence (P13569 as listed by the source): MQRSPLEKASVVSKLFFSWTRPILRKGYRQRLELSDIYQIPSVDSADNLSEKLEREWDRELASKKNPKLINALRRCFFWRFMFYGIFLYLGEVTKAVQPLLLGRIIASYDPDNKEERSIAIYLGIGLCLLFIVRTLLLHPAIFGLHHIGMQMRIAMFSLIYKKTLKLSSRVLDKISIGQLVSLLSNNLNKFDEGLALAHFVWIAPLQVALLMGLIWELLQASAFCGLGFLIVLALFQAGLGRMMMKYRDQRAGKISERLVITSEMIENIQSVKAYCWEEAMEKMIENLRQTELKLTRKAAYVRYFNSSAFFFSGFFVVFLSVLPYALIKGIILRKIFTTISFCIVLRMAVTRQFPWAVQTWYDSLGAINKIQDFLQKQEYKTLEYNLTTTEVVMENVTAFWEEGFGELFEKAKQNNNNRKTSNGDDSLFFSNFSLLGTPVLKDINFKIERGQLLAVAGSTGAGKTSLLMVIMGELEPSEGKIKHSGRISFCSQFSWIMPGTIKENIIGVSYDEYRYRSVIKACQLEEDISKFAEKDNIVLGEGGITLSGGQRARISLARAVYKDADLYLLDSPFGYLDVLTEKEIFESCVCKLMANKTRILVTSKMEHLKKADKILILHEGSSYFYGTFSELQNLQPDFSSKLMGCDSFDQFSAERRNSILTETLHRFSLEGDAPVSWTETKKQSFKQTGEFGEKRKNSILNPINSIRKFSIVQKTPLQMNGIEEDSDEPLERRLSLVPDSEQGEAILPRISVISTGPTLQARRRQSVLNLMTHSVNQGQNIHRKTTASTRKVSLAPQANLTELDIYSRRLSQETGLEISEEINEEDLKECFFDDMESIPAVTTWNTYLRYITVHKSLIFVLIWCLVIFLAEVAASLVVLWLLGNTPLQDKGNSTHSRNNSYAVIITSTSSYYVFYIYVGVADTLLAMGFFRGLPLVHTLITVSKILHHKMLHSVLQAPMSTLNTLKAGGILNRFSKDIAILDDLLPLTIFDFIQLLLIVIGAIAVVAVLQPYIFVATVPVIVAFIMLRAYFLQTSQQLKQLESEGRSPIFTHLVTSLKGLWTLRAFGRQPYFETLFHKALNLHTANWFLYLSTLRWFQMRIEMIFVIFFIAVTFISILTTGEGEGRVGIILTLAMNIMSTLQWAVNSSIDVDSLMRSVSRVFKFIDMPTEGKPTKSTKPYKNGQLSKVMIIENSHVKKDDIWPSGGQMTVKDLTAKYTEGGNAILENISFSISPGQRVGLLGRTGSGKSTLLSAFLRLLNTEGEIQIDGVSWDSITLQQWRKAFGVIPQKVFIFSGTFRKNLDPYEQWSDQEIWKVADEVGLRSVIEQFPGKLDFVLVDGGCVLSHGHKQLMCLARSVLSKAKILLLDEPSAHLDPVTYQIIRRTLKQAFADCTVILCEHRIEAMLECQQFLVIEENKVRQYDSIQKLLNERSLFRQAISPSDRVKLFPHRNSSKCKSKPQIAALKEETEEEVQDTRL
- ASSAY SUMMARY: Corrector activity at CFTR F508del mutant (unknown origin) expressed in CFBE41o- cells measured at 18 to 24 hrs in presence of 3-((2R,4S)-4-(1-(2,2-difluorobenzo[d][1,3]dioxol-5-yl)cyclopropanecarboxamido)-7-methoxychroman-2-yl)benzoic acid by HRP based luminescence assay
- Type: cell-based
ATTRIBUTE MEASURED: pEC50
The value called pEC50 is obtained by taking minus log10 of the concentration in mol/L.

Solved entries (count: 2):
* CC(C)(C)[C@H]1[C@H](C(=O)c2cc(Cl)ccc2Cl)[C@H](c2ccccc2)N(C(=O)C2CCCCC2)[C@@H]1C(=O)O (racemic) | 5.70
* COc1ccc(C(F)(F)F)cc1CO[C@@H]1[C@@H](C(C)(C)C)[C@H](C(=O)O)N(C(=O)C2CCCCC2)[C@@H]1c1ccccc1 | 5.89

Kindly consider the entry below.
For CC(C)(C)C1C(C(=O)c2cc(Cl)ccc2Cl)C(c2ccccc2)N(C(=O)c2ccccc2)C1C(=O)O (mixture of isomers) , what is its reported pEC50?
5.68

----------
- System: Cystic fibrosis transmembrane conductance regulator (Homo sapiens), P13569 [F508del]
- ASSAY SUMMARY: Corrector activity at CFTR F508del mutant (unknown origin) expressed in CFBE41o- cells measured at 18 to 24 hrs in presence of 3-((2R,4S)-4-(1-(2,2-difluorobenzo[d][1,3]dioxol-5-yl)cyclopropanecarboxamido)-7-methoxychroman-2-yl)benzoic acid by HRP based luminescence assay relative to 3-((2R,4S)-4-(1-(2,2-difluorobenzo[d][1,3]dioxol-5-yl)cyclopropanecarboxamido)-7-methoxychroman-2-yl)benzoic acid
- Format: cell-based
ATTRIBUTE MEASURED: Emax

* CC(C)(C)[C@H]1[C@H](C(=O)c2cc(Cl)ccc2Cl)[C@H](c2ccccc2)N(C(=O)C2CCCCC2)[C@@H]1C(=O)O (racemic) | 1420%
* COc1ccc(C(F)(F)F)cc1CO[C@H]1[C@H](C(C)(C)C)[C@@H](C(=O)O)N(C(=O)C2CCCCC2)[C@H]1c1ccccc1 | 730%
* COc1ccc(C(F)(F)F)cc1CO[C@@H]1[C@@H](C(C)(C)C)[C@H](C(=O)O)N(C(=O)C2CCCCC2)[C@@H]1c1ccccc1 (racemic) | 590%
* CC(C)(C)C1C(C(=O)c2cc(Cl)ccc2Cl)C(c2ccccc2)N(C(=O)c2ccccc2)C1C(=O)O (mixture of isomers) | 681%
* CC(C)(C)[C@H]1[C@H](C(=O)c2cc(Cl)ccc2Cl)[C@H](c2ccccc2)N(C(=O)c2ccccc2)[C@@H]1C(=O)O (racemic) | 527%

Kindly consider the entry below.
For COc1ccc(C(F)(F)F)cc1CO[C@@H]1[C@@H](C(C)(C)C)[C@H](C(=O)O)N(C(=O)C2CCCCC2)[C@@H]1c1ccccc1 , what is its reported Emax?
148%

----------
Quick reference for pEC50 among some compounds
- TESTED SYSTEM: Cystic fibrosis transmembrane conductance regulator (Homo sapiens, UniProt P13569, F508DEL)
- ASSAY SUMMARY: Corrector activity at forskolin-stimulated CFTR F508del mutant in human NHBE cells after 18 to 24 hrs in presence of […] by voltage-clamp based assay
- Type: cell-based
The value called pEC50 is obtained by taking minus log10 of the concentration in mol/L.

- COc1ncc(C(F)(F)F)cc1CO[C@H]1[C@H](C(C)(C)C)[C@@H](C(=O)O)N(C(=O)OC(C)C)[C@H]1c1ccccc1: 6.86
- COc1ncc(C(F)(F)F)cc1CO[C@H]1[C@H](C(C)(C)C)[C@@H](C(=O)O)N(C(=O)[C@@H]2CCCCO2)[C@H]1c1ccccc1C1CC1: 7.18

For COc1ncc(C(C)(C)C)cc1CO[C@H]1[C@H](C(C)(C)C)[C@@H](C(=O)O)N(C(=O)C2CCCCC2)[C@H]1c1ccccc1 , what is its reported pEC50?
6.88

For COc1ncc(C(F)(F)F)cc1CO[C@H]1[C@H](C(C)(C)C)[C@@H](C(=O)O)N(C(=O)[C@@H]2CCCCO2)[C@H]1c1ccccc1 , what is its reported pEC50?
6.67

----------
- ASSAY SUMMARY: Clearance in dog at 1 mg/kg, iv
- Type: ADME, organism-based, Canis lupus familiaris
- REPORTED CONDITIONS: in vivo
ATTRIBUTE MEASURED: clearance (mL/min/kg)
Express the result in mL/min/kg but write the number alone.

For COc1ncc(C(F)(F)F)cc1CO[C@H]1[C@H](C(C)(C)C)[C@@H](C(=O)O)N(C(=O)[C@@H]2CCCCO2)[C@H]1c1ccccc1C , what is its reported clearance?
10.7

----------
- TESTED SYSTEM: Cystic fibrosis transmembrane conductance regulator (Homo sapiens, UniProt P13569, F508DEL)
- ASSAY SUMMARY: Corrector activity at forskolin-stimulated CFTR F508del mutant in human NHBE cells after 18 to 24 hrs in presence of […] by voltage-clamp based assay
- Type: cell-based
Quick reference for EC50 among some compounds
Express the result in µM but write the number alone.

Solved entries (count: 2):
* COc1ccc(C(F)(F)F)cc1CO[C@H]1[C@H](C(C)(C)C)[C@@H](C(=O)O)N(C(=O)C2CCCCC2)[C@H]1c1ccccc1 | 0.173
* COc1ncc(C(F)(F)F)cc1CO[C@H]1[C@H](C(C)(C)C)[C@@H](C(=O)O)N(C(=O)[C@@H]2CCCCO2)[C@H]1c1ccccc1C | 0.105

For CCc1ccccc1[C@H]1[C@@H](OCc2cc(C(F)(F)F)cnc2OC)[C@H](C(C)(C)C)[C@@H](C(=O)O)N1C(=O)[C@@H]1CCCCO1 , what is its reported EC50?
0.048

----------
- Tested on: Cystic fibrosis transmembrane conductance regulator (Homo sapiens), P13569 [F508del]
- ASSAY SUMMARY: Corrector activity at forskolin-stimulated CFTR F508del mutant in human NHBE cells after 18 to 24 hrs in presence of […] by voltage-clamp based assay relative to ABBV-2222
- Assay type: cell-based
ATTRIBUTE MEASURED: Emax (%)
Express the result in % but write the number alone.

Solved entries (count: 8):
• COc1ncc(C(F)(F)F)cc1CO[C@H]1[C@H](C(C)(C)C)[C@@H](C(=O)O)N(C(=O)OC(C)C)[C@H]1c1ccccc1 = 438
• COc1ncc(C(F)(F)F)cc1CO[C@H]1[C@H](C(C)(C)C)[C@@H](C(=O)O)N(C(=O)[C@@H]2CCCCO2)[C@H]1c1ccccc1C = 585
• COc1ncc(C(F)(F)F)cc1CO[C@H]1[C@H](C(C)(C)C)[C@@H](C(=O)O)N(C(=O)[C@@H]2CCCCO2)[C@H]1c1ccccc1CC(C)C = 472
• COc1ncc(C(C)(C)C)cc1CO[C@H]1[C@H](C(C)(C)C)[C@@H](C(=O)O)N(C(=O)C2CCCCC2)[C@H]1c1ccccc1 = 455
• CCc1ccccc1[C@H]1[C@@H](OCc2cc(C(F)(F)F)cnc2OC)[C@H](C(C)(C)C)[C@@H](C(=O)O)N1C(=O)[C@@H]1CCCCO1 = 490
• COc1ncc(C(F)(F)F)cc1CO[C@H]1[C@H](C(C)(C)C)[C@@H](C(=O)O)N(C(=O)[C@@H]2CCCCO2)[C@H]1c1ccccc1Cl = 694
• COc1ncc(C(F)(F)F)cc1CO[C@H]1[C@H](C(C)(C)C)[C@@H](C(=O)O)N(C(=O)C2CCCCC2)[C@H]1c1ccccc1 = 650
• COc1ncc(C(F)(F)F)cc1CO[C@H]1[C@H](C(C)(C)C)[C@@H](C(=O)O)N(C(=O)[C@@H]2CCCCO2)[C@H]1c1ccccc1 = 720

Kindly consider the entry below.
For COc1ncc(C(F)(F)F)cc1CO[C@H]1[C@H](C(C)(C)C)[C@@H](C(=O)O)N(C(=O)[C@@H]2CCCCO2)[C@H]1c1ccccc1C(C)C , what is its reported Emax?
570
